System: Abutilon theophrasti
assay.method.text: Herbicidal activity against Abutilon theophrasti (velvetleaf) at 40 g/hm2 postemergent application after 2 weeks
Assay type: functional
What Activity was measured for each of the following?
Units required after the number.

// below: answered compounds
compound	result.value
C=C(COC(=O)c1cc(Oc2ccc(C(F)(F)F)cc2Cl)ccc1Cl)C(=O)OC	10%
C=C(COC(=O)c1cc(Oc2ccc(C(F)(F)F)cc2Cl)ccc1Cl)C(=O)OCCC	20%
CCOC(=O)/C=C/COC(=O)c1cc(Oc2ccc(C(F)(F)F)cc2Cl)ccc1[N+](=O)[O-]	95%

Fill in Activity for each of the 3 compounds listed.
1. COCCOC(=O)/C=C(\C)OC(=O)c1cc(Oc2ccc(C(F)(F)F)cc2Cl)ccc1[N+](=O)[O-]
2. COC(=O)/C=C(\C)OC(=O)c1cc(Oc2ccc(C(F)(F)F)cc2Cl)ccc1[N+](=O)[O-]
3. C=C(C(=O)OCC)C(C)OC(=O)c1cc(Oc2ccc(C(F)(F)F)cc2Cl)ccc1[N+](=O)[O-] (stereo unspecified)

Solution:
1. 98%
2. 25%
3. 5%

====

What Activity was measured for each of the following?
Tested on: Echinochloa crus-galli
assay.method.text: Herbicidal activity against Echinochloa crus-galli (barnyard grass) at 40 g/hm2 postemergent application after 2 weeks
Assay type: functional
Answers are plain numbers, in %.

Fill in Activity for each of the 4 molecules listed.
1. C=C(C(=O)OCC)C(C)OC(=O)c1cc(Oc2ccc(C(F)(F)F)cc2Cl)ccc1Cl (configuration not stated)
2. COCCOC(=O)/C=C(\C)OC(=O)c1cc(Oc2ccc(C(F)(F)F)cc2Cl)ccc1[N+](=O)[O-]
3. O=C(O)c1cc(Oc2ccc(C(F)(F)F)cc2Cl)ccc1[N+](=O)[O-]
4. C/C(=C\C(=O)OC(C)(C)C)OC(=O)c1cc(Oc2ccc(C(F)(F)F)cc2Cl)ccc1[N+](=O)[O-]

Solution:
1: 0; 2: 20; 3: 20; 4: 5

====

Test system: Abutilon theophrasti
assay.method.text: Herbicidal activity against Abutilon theophrasti (velvetleaf) at 40 g/hm2 postemergent application after 2 weeks
Format: functional
readout: Activity

compound	Activity
CCOC(=O)/C=C(\C)OC(=O)c1cc(Oc2ccc(C(F)(F)F)cc2Cl)ccc1[N+](=O)[O-]	10%
O=C(O)c1cc(Oc2ccc(C(F)(F)F)cc2Cl)ccc1[N+](=O)[O-]	50%
CCOC(=O)/C=C(\C)COC(=O)c1cc(Oc2ccc(C(F)(F)F)cc2Cl)ccc1[N+](=O)[O-]	90%
C=C(COC(=O)c1cc(Oc2ccc(C(F)(F)F)cc2Cl)ccc1Cl)C(=O)OCC	30%

Fill in Activity for each of the 5 compounds listed.
1. CCOC(=O)/C(C)=C(\C)OC(=O)c1cc(Oc2ccc(C(F)(F)F)cc2Cl)ccc1Cl
2. C/C(=C\C(=O)OC(C)(C)C)OC(=O)c1cc(Oc2ccc(C(F)(F)F)cc2Cl)ccc1[N+](=O)[O-]
3. CCOC(=O)/C=C/COC(=O)c1cc(Oc2ccc(C(F)(F)F)cc2Cl)ccc1Cl
4. C=C(C(=O)OCC)C(C)OC(=O)c1cc(Oc2ccc(C(F)(F)F)cc2Cl)ccc1Cl (centres undefined)
5. CCOC(=O)/C(C)=C(\C)OC(=O)c1cc(Oc2ccc(C(F)(F)F)cc2Cl)ccc1[N+](=O)[O-]

Solution:
["5%", "30%", "98%", "5%", "0%"]
